// reported viability at 24 h, 32 ug/ml per item
- Test description: Cytotoxicity against HUVEC assessed as cell viability at 32 ug/ml after 24 hrs by MTT assay relative to control
- Format: cell-based
- Reported conditions: human, HUVEC cells; read-out: Activity
The reply should be a number in %, with the unit left off.

{"Molecule": "O=C(/C=C/c1ccc(F)cc1)/C=C/c1ccc(F)cc1", "Value": 43}
{"Molecule": "COc1cc(/C=C/C(=O)CC(=O)/C=C/c2ccc(O)c(OC)c2)ccc1O [CURCUMIN]", "Value": 22}
{"Molecule": "O=C1/C(=C/c2ccc(O)cc2)CC/C1=C\\c1ccc(O)cc1", "Value": 60}
{"Molecule": "O=C(/C=C/c1ccc2c(c1)OCO2)/C=C/c1ccc2c(c1)OCO2", "Value": 71}
{"Molecule": "O=C(/C=C/c1ccc(O)c(O)c1)/C=C/c1ccc(O)c(O)c1", "Value": 75}
{"Molecule": "O=C1/C(=C/c2ccc(CO)o2)CC/C1=C\\c1ccc(CO)o1", "Value": 57}
{"Molecule": "O=C(/C=C/c1ccc(O)cc1)/C=C/c1ccc(O)cc1", "Value": 75}
{"Molecule": "O=C(/C=C/c1cccs1)/C=C/c1cccs1", "Value": 49}
{"Molecule": "COc1ccc(/C=C/C(=O)/C=C/c2ccc(OC)c(OC)c2)cc1OC", "Value": 55}

Then this molecule:
Q: Give the reported viability at 24 h, 32 ug/ml for this molecule. O=C1/C(=C/c2ccco2)CC/C1=C\c1ccco1
Result: 69
